# Test system: Collinsella aerofaciens
# Test: growth AUC relative to DMSO control (median of replicates) (fraction); higher = more growth (less inhibition), active = hit call of the paper
# Test context: 20 µM; 24 h
Recorded endpoint: growth AUC
Simply state the number, no unit and no words.

Check out these entries, answers already filled in.
{"columns": ["Compound", "Meas value"],
 "data": [
  ["CCOc1ccc2c(c1)C(C)=CC(C)(C)N2", 1.02],
  ["CCCNCCOc1c(Cl)cc(Cl)cc1Cl", 0.98]
]}

In plain terms, COC(=O)c1c(Cl)nn(C)c1S(=O)(=O)NC(=O)Nc1nc(OC)cc(OC)n1 has a documented growth AUC of 1.02

Per the record, CCCN(CCOc1c(Cl)cc(Cl)cc1Cl)C(N)=O has growth AUC of 0.993

Short answer for O.O=C(Nc1ccc([N+](=O)[O-])cc1Cl)c1cc(Cl)ccc1O : growth AUC was 0.865

The reported value for NC(=O)c1c(Cl)cccc1Cl in terms of growth AUC is 0.974

Ref: the supplement of paper PMC12669032
